Data provenance: patent US11090304B2

# Tested system: GDP-bound KRAS protein (aa 1-169), containing both G12C and C118A amino acid substitutions (Homo sapiens, UniProt P01116, C118A/G12C)
# Sequence (P01116 1-169 isoform P01116-2 G12C/C118A): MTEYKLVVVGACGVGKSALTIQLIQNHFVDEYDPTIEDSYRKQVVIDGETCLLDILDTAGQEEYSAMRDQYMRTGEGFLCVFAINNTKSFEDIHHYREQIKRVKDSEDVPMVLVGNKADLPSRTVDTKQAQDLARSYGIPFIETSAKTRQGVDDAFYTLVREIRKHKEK
# Test description: Coupled nucleotide exchange assay (SOS-mediated, AlphaScreen)
# Format: biochemical
# Recorded conditions: 5 min compound pre-incubation
Coupled exchange IC50 (5 min): recorded values
Quantity name: Coupled exchange IC50 (5 min)

1) C=CC(=O)N1CCN(c2nc(=O)n(-c3c(C)ccnc3C(C)C)c3nc(-c4ccccc4F)c(Cl)cc23)C2(CC2)C1 (single isomer, unassigned)
30.3 | nda μM
2) C=CC(=O)N1CCN(c2nc(=O)n(-c3ccccc3C(C)C)c3nc(-c4cc(C(F)(F)F)nn4C)c(Cl)cc23)[C@@H](C)C1
6.45 | nda μM
3) C=CC(=O)N1CCN(c2nc(=O)n(-c3ccccc3C(C)C)c3nc(-c4cc(N)ccc4Cl)c(Cl)cc23)[C@@H](C)C1 (single isomer, unassigned) [Example 56-7-1]
0.079 | nda μM
4) C=CC(=O)N1CCN(c2nc(CO)c(C(=O)N3[C@@H](C)CC[C@@H]3C)c3nc(-c4ccccc4F)c(Cl)cc23)CC1
20.6 | nda μM
5) C=CC(=O)N1CCN(c2nc(=O)n(-c3c(C#N)cccc3C(C)C)c3nc(-c4ccccc4F)c(Cl)cc23)[C@@H](C)C1 [Example 60-20]
0.053 | nda μM
6) C=CC(=O)N1CCN(c2nc(=O)n(-c3c(C)ccnc3C(C)C)c3nc(-c4c(O)cccc4F)c(C)cc23)[C@@H](C)C1 (single isomer, unassigned) [Example 74-3-1]
0.05 | nda μM

----------
# Tested system: GDP-bound KRAS protein (aa 1-169), containing both G12C and C118A amino acid substitutions (Homo sapiens, UniProt P01116, C118A/G12C)
# Test description: Coupled nucleotide exchange assay (SOS-mediated, AlphaScreen)
# Format: biochemical
# Recorded conditions: 5 min compound pre-incubation
Coupled exchange IC50 (5 min): recorded values
Quantity name: Coupled exchange IC50 (5 min)

1) C=CC(=O)N1CCN(c2nc(=O)n(-c3c(C)cccc3CC)c3nc(-c4ccccc4F)c(F)cc23)[C@@H](C)C1 (single isomer, unassigned) [Example 57-13-1]
1.46 | nda μM
2) C=CC(=O)N1CCN(c2nc(=O)n(-c3ccccc3C(C)C)c3nc(-c4cc(N)ccc4Cl)c(Cl)cc23)[C@@H](C)C1 [Example 56-7]
0.11 | nda μM
3) C=CC(=O)N1CCN(c2nc(=O)n(-c3c(C(F)(F)F)ccnc3C(C)C)c3nc(-c4c(O)cccc4F)c(F)cc23)[C@@H](C)C1 (single isomer, unassigned) [Example 58-3-1]
0.097 | nda μM
4) C=CC(=O)N1C[C@H](C)N(c2nc(=O)n(-c3c(C)ccnc3C(C)C)c3nc(-c4c(O)cccc4F)c(Cl)cc23)[C@@H](C)C1 (atropisomer, axis not shown; (M))
0.019 | nda μM
5) C=CC(=O)N1CCN(c2nc(=O)n(-c3c(F)cccc3C(C)C)c3nc(-c4ccccc4F)c(F)cc23)[C@@H](C)C1 (single isomer, unassigned) [Example 59-3-1]
0.128 | nda μM

----------
# Tested system: GDP-bound KRAS protein (aa 1-169), containing both G12C and C118A amino acid substitutions (Homo sapiens, UniProt P01116, C118A/G12C)
# Test description: Coupled nucleotide exchange assay (SOS-mediated, AlphaScreen)
# Assay type: biochemical
# Recorded conditions: 5 min compound pre-incubation
Coupled exchange IC50 (5 min): recorded values
Quantity name: Coupled exchange IC50 (5 min)

1) C=CC(=O)N1CCN(c2nc(=O)n(C)c3nc(-c4ccccc4F)c(Cl)cc23)[C@@H](C)C1
45.8 | nda μM
2) C=CC(=O)N1CCN(c2nc(=O)n(-c3c(C)ccnc3C(C)C)c3nc(-c4c(O)cccc4F)c(F)cc23)CC1 (single isomer, unassigned)
0.552 | nda μM
3) C=CC(=O)N1CCN(c2nc(=O)n(-c3cncnc3C(C)(C)C)c3nc(-c4ccccc4F)c(Cl)cc23)[C@@H](C)C1 [Example 54-110]
0.404 | nda μM
4) C=CC(=O)N1CCN(c2nc(=O)n(-c3c(CC)cccc3CC)c3nc(-c4ccccc4)c(Cl)cc23)[C@@H](C)C1
0.808 µM
5) C=CC(=O)N1CCN(c2nc(=O)n(-c3ccccc3C3(C)CC3)c3nc(-c4c(O)cccc4F)c(Cl)cc23)[C@@H](C)C1 (single isomer, unassigned) [Example 54-97-2]
0.044 | nda μM
6) C=CC(=O)N1CCN(c2nc(=O)n(-c3c(C)ncnc3C(C)C)c3nc(-c4ccccc4F)c(Cl)cc23)[C@@H](C)C1 (single isomer, unassigned) [Example 55-13-1]
0.722 | nda μM
